Tested target: monomeric cyno Tim3-ECD (cynomolgus)
Protocol text: ELISA on cynomolgus Tim3
Measure: EC50
Respond with the figure and its unit, in that order.

Determine its reported EC50: anti-TIM3 antibody Tim3_0016 variant (Tim3_0018) (antibody, V domains shown, Mouse monoclonal from hybridoma; also called TIM3-0016 variant (0018); Tim3_0016 variant 0018-A488) VH: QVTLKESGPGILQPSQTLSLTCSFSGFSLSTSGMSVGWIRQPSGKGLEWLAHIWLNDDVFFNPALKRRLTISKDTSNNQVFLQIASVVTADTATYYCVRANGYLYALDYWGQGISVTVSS VL: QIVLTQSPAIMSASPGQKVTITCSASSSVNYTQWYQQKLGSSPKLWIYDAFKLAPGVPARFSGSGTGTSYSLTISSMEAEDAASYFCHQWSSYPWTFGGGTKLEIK
0.0146 µg/mL
